# Test system: KRAS-mutant PDC tumor spheroid with HUVEC/MSC, viability;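 note: spheroids exposed to agents for seven days before reading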
# protocol-description: Anticancer human tumor 327498-153-R-J2-PDC patient-derived uterine carcinosarcoma cell line growth inhibition [KRAS2]; active = viability on the fitted dose curve at most 10% of control; inactive = the rest
# protocol-conditions: second compound 3.16 µM; first compound 0.0316 µM
Classes to choose from: active, inactive

# molecule, group
data = [
    ("CC1COCCN1c1cc(-c2ccnn2C)c2ccnc(-c3ccn[nH]3)c2n1 (stereo unspecified) + CC1OCC2(CCN(c3cnc(Sc4ccnc(N)c4Cl)c(N)n3)CC2)C1N", "inactive"),
    ("CC(C)NCC(C(=O)N1CCN(c2ncnc3c2C(C)CC3O)CC1)c1ccc(Cl)cc1 (stereo unspecified) + CNCc1ccccc1-c1csc(C(C)Nc2nc(C)nc3cc(OC)c(OC)cc23)c1", "active"),
    ("CC1(C)CCC(CN2CCN(c3ccc(C(=O)NS(=O)(=O)c4ccc(NCC5CCOCC5)c([N+](=O)[O-])c4)c(Oc4cnc5[nH]ccc5c4)c3)CC2)=C(c2ccc(Cl)cc2)C1 + COc1cc2nc(C)nc(NC(C)c3cc(N)cc(C(F)(F)F)c3)c2cc1OC1CCOC1", "inactive"),
]

*Q* # fetch the recorded call for CC1OCC2(CCN(c3cnc(Sc4ccnc(N)c4Cl)c(N)n3)CC2)C1N (stereo unspecified) + COc1cc2nc(C)nc(NC(C)c3cc(N)cc(C(F)(F)F)c3)c2cc1OC1CCOC1 here
*A* inactive

*Q* I'd appreciate the recorded outcome for COc1cc2nccc(Oc3ccc(NC(=O)C4(C(=O)Nc5ccc(F)cc5)CC4)cc3)c2cc1OC + COc1cc2nc(C)nc(NC(C)c3cc(N)cc(C(F)(F)F)c3)c2cc1OC1CCOC1 from this test.
*A* inactive

*Q* How was CC(C)NCC(C(=O)N1CCN(c2ncnc3c2C(C)CC3O)CC1)c1ccc(Cl)cc1 (stereo unspecified) + C=CC(=O)N1CCN(c2nc(=O)n(-c3c(C)ccnc3C(C)C)c3nc(-c4c(O)cccc4F)c(F)cc23)C(C)C1 classified in this test?
*A* inactive

*Q* Lab log entry: COc1cc(Nc2ncc3c(n2)-c2ccc(Cl)cc2C(c2c(F)cccc2OC)=NC3)ccc1C(=O)O + C=CC(=O)N1CCN(c2nc(OCC3CCCN3C)nc3c2CCN(c2cccc4cccc(C)c24)C3)CC1CC#N — outcome as called in the assay?
*A* active

*Q* What outcome does the record of this test show for CCNC(=O)CC1N=C(c2ccc(Cl)cc2)c2cc(OC)ccc2-n2c(C)nnc21 (stereo unspecified) + C=CC(=O)N1CCN(c2nc(OCC3CCCN3C)nc3c2CCN(c2cccc4cccc(C)c24)C3)CC1CC#N ?
*A* active

*Q* Record request — test call for CC1COCCN1c1cc(-c2ccnn2C)c2ccnc(-c3ccn[nH]3)c2n1 (stereo unspecified) + COc1cc2nc(C)nc(NC(C)c3cc(N)cc(C(F)(F)F)c3)c2cc1OC1CCOC1
*A* inactive

*Q* Outcome? CN(C)C/C=C/C(=O)Nc1cc2c(Nc3ccc(F)c(Cl)c3)ncnc2cc1O[C@H]1CCOC1 + CNCc1ccccc1-c1csc(C(C)Nc2nc(C)nc3cc(OC)c(OC)cc23)c1
*A* inactive

*Q* Hi, sorry to bother you, what did the test record for COc1cc2nccc(Oc3ccc(NC(=O)C4(C(=O)Nc5ccc(F)cc5)CC4)cc3)c2cc1OC + C=CC(=O)N1CCN(c2nc(=O)n(-c3c(C)ccnc3C(C)C)c3nc(-c4c(O)cccc4F)c(F)cc23)C(C)C1 ?
*A* inactive
